Cited source: patent US20230061736A1

Target: human GPR119 (hGPR119) (Homo sapiens, UniProt Q8TDV5)
Sequence (Q8TDV5 1-335): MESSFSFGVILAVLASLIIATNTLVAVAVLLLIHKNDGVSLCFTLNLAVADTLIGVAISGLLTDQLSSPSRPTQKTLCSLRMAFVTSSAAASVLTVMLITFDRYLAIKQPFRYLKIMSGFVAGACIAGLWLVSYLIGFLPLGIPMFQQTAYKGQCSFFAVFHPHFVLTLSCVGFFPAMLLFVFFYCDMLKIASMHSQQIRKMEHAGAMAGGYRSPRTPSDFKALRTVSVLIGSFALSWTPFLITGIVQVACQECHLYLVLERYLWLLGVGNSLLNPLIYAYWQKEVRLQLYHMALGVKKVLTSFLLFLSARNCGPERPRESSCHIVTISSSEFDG
Assay: cAMP accumulation assay (cAMP Gs dynamic HTRF kit)
Conditions: CHO-K1 cells stably expressing hGPR119; cAMP accumulation; 4-parameter fit
quantity: EC50

| compound | EC50 |
| --- | --- |
| CCOc1cnc(N2CCC(CCCOc3cc(F)c(CC(=O)N4CC[C@@H](CNC[C@H](O)[C@@H](O)[C@H](O)[C@H](O)CO)C4)c(F)c3)CC2)nc1 [Example 134] | ≤ 100 nM |

CCCc1cnc(N2CCC(CCCOc3ccc(CC(=O)N4CC(CNC[C@H](O)[C@@H](O)[C@H](O)[C@H](O)CO)C4)c(F)c3)CC2)nc1 [Example 74] has a reported EC50 of 100 to 1000 nM

O=C(Cc1ccc(OCCCC2CCN(c3ncc(Cl)cn3)CC2)cc1F)NCCCCS(=O)(=O)O [Example 12] has a reported EC50 of 1000 to 10000 nM

O=C(Cc1c(F)cc(OCCCC2CCN(c3ncc(Cl)cn3)CC2)cc1F)N1CC[C@@H](CNC(CO)(CO)CO)C1 [Example 149] has a reported EC50 of ≤ 100 nM

====

Molecular target: human GPR119 (hGPR119) (Homo sapiens)
Construct: expressed in transfected cells
Sequence (Q8TDV5 1-335): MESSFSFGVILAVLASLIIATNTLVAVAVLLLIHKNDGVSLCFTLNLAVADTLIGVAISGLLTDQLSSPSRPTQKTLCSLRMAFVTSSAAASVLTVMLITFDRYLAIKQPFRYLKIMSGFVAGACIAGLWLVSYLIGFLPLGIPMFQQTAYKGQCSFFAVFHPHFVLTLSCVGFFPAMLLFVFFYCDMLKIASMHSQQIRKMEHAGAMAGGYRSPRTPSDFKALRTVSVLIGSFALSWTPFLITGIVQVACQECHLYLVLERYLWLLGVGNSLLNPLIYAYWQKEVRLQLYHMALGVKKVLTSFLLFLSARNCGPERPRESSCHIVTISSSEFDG
Assay: cAMP accumulation assay (cAMP Gs dynamic HTRF kit)
Assay type: cell-based
Conditions: 1 h; CHO-K1 cells stably expressing hGPR119; % activity normalized to Max/Min controls; 4-parameter fit
quantity: Emax

Use the examples below as a reference point.
| compound | Emax |
| --- | --- |
| CCOc1cnc(N2CCC(CCCOc3cc(F)c(CC(=O)N4CC[C@@H](CNCC(O)(CO)CO)C4)c(F)c3)CC2)nc1 [Example 156] | ≥ 130% |
| COCC1(CNCC(CO)(CO)CO)CCN(C(=O)Cc2ccc(OCCCC3CCN(c4ncc(Cl)cn4)CC3)cc2F)C1 (centres unmarked) [Example 122] | 100 to 130% |
| O=C(NC(CO)CO)C1CN(C(=O)Cc2ccc(OCCCC3CCN(c4ncc(Cl)cn4)CC3)cc2F)C1 [Example 28] | 100 to 130% |
| O=C(NC(CO)(CO)CO)[C@H]1CCN(C(=O)Cc2ccc(OCCCC3CCN(c4ncc(Cl)cn4)CC3)cc2F)C1 [Example 103] | 100 to 130% |
| O=C(Cc1ccc(OCCCC2CCN(c3ncc(Cl)cn3)CC2)cc1F)N1CC(CNCC(CO)CO)C1 [Example 45] | 100 to 130% |

O=C(Cc1ccc(OCCCC2CCN(c3ncc(Cl)cn3)CC2)cc1F)NCCCCCC(=O)NC(CO)CO [Example 17] has a reported Emax of ≥ 130%

====

Recorded Emax for the following compounds
Target: human GPR119 (hGPR119) (Homo sapiens)
Construct: expressed in transfected cells
Experiment: cAMP accumulation assay (cAMP Gs dynamic HTRF kit)
Format: cell-based
Details: 1 h; CHO-K1 cells stably expressing hGPR119; % activity normalized to Max/Min controls; 4-parameter fit
Structures can show the parent of a compound that is named as a salt.

Use the examples below as a reference point.
| compound | observed |
| --- | --- |
| O=C(Cc1ccc(OCCCC2CCN(c3ncc(Cl)cn3)CC2)cc1F)N1CC(CCNC[C@H](O)[C@H](O)[C@H](O)CO)C1 [Example 164] | 100 to 130% |
| CCCc1cnc(N2CCC(CCCOc3cc(F)c(CC(=O)N4CC(C(=O)NCCC[N+](C)(C)C)C4)c(F)c3)CC2)nc1 [Example 40, ammonium formate] | 100 to 130% |
| O=C(Cc1ccc(OCCC2CC3(CCN(c4ncc(Cl)cn4)CC3)C2)cc1F)N1CC(CNC[C@H](O)[C@@H](O)[C@H](O)[C@H](O)CO)C1 [Example 104] | 100 to 130% |
| CC(C)OC(=O)N1CCC(CCCOc2ccc(CC(=O)N3CC(CNC[C@H](O)[C@@H](O)[C@H](O)[C@H](O)CO)C3)c(F)c2)CC1 [Example 112] | 100 to 130% |
| COCc1cnc(N2CCC(CCCCOc3cc(F)c(CC(=O)N4CC(CNC[C@H](O)[C@@H](O)[C@H](O)[C@H](O)CO)C4)c(F)c3)CC2)nc1 (racemic) [Example 85] | 100 to 130% |
| COCc1cnc(N2CCC(CCCCOc3ccc(CC(=O)N4CC(CNC[C@H](O)[C@@H](O)[C@H](O)[C@H](O)CO)C4)c(F)c3)CC2)nc1 (racemic) [Example 84] | 100 to 130% |
| CCCc1cnc(N2CCC(CCCOc3ccc(CC(=O)N4CC(CNC[C@H](O)[C@@H](O)[C@H](O)[C@H](O)CO)C4)c(F)c3)CC2)nc1 [Example 74] | ≥ 130% |
| O=C(Cc1ccc(OCCCC2CCN(c3ncc(Cl)cn3)CC2)cc1F)NCCCCCC(=O)NC(CO)(CO)CO [Example 18] | 100 to 130% |

O=C(Cc1ccc(OCCCC2CCN(c3ncc(Cl)cn3)CC2)cc1F)N1CC(CNC(CO)(CO)CO)C1 [Example 44] has a reported Emax of ≥ 130%

O=C(Cc1ccc(OCCCC2CCN(c3ncc(Cl)cn3)CC2)cc1F)NCCC(=O)NC(CO)CO [Example 19] has a reported Emax of 100 to 130%

CCc1cnc(N2CCC(CCCOc3cc(F)c(CC(=O)N4CC(CNCCNC(=O)NC(CO)(CO)CO)C4)c(F)c3)CC2)nc1 [Example 68] has a reported Emax of ≥ 130%

O=C(Cc1ccc(OCCCC2CCN(c3ncc(Cl)cn3)CC2)cc1F)NCCCC(=O)NC(CO)(CO)CO [Example 22] has a reported Emax of ≥ 130%

O=C(Cc1ccc(OCCCC2CCN(c3ncc(Cl)cn3)CC2)cc1F)N1CCC(O)(C(=O)NCC(CO)(CO)CO)C1 (centres unmarked) [Example 182] has a reported Emax of 100 to 130%

COCc1cnc(N2CCC(CCCOc3cc(F)c(CC(=O)N4CC[C@@H](CNC(CO)(CO)CO)C4)c(F)c3)CC2)nc1 [Example 158] has a reported Emax of 100 to 130%

====

Biological target: human GPR119 (hGPR119) (Homo sapiens, UniProt Q8TDV5)
Assay: cAMP accumulation assay (cAMP Gs dynamic HTRF kit)
Details: CHO-K1 cells stably expressing hGPR119; cAMP accumulation; 4-parameter fit
Description: CHO-K1 cells stably expressing human GPR119 (hGPR119) were prepared by transfection of a GPR119-carrying plasmid using Lipofectamine 2000 (following manufacturer instructions). […] Assay-ready frozen (ARF) cells were prepared and used throughout the study. […] RT-FRET was measured using a ClarioSTAR plate reader, calculating the ratio between emissions at 665 nm and 620 nm (HTRF ratio). […] EC50 and Max activity values were determined using a standard 4-parameter fit.
quantity: EC50

Use the examples below as a reference point.
| compound | EC50 |
| --- | --- |
| O=C(Cc1ccc(OCCCC2CCN(c3ncc(Cl)cn3)CC2)cc1F)NCCCCC(=O)NC(CO)CO [Example 23] | 100 to 1000 nM |
| O=C(Cc1c(F)cc(OCCC2CC(C3CCN(c4ncc(Cl)cn4)CC3)C2)cc1F)N1CC(CNC[C@H](O)[C@@H](O)[C@H](O)[C@H](O)CO)C1 (stereo partly drawn) [Example 124] | ≤ 100 nM |
| COCC1(CNCC(CO)(CO)CO)CCN(C(=O)Cc2ccc(OCCCC3CCN(c4ncc(Cl)cn4)CC3)cc2F)C1 (stereo not drawn) [Example 122] | ≤ 100 nM |
| COCc1cnc(N2CCC(CCCOc3ccc(CC(=O)N4CC(CNC[C@H](O)[C@@H](O)[C@H](O)[C@H](O)CO)C4)c(F)c3)CC2)nc1 [Example 83] | 100 to 1000 nM |

O=C(NCCCCCS(=O)(=O)O)C1CN(C(=O)Cc2ccc(OCCCC3CCN(c4ncc(Cl)cn4)CC3)cc2F)C1 [Example 174] has a reported EC50 of 100 to 1000 nM

O=C(Cc1ccc(OCCC2CC(C3CCN(c4ncc(Cl)cn4)CC3)C2)cc1F)N1CC(CNC[C@H](O)[C@@H](O)[C@H](O)[C@H](O)CO)C1 (stereo partly drawn) [Example 123] has a reported EC50 of 100 to 1000 nM
